- Assay Overview: Plasma pharmacokinetics of rucaparib (LC-MS/MS, noncompartmental)
- Settings: human, plasma, po, 12 mg, tmax, single oral dose 12 mg, day –5; median (minimum, maximum)
Measured Attribute: Tmax (h)

[[record]]
structure_smiles_string = "CNCc1ccc(-c2[nH]c3cc(F)cc4c3c2CCNC4=O)cc1"
unit_of_measurement = "h"
readout_number = 1


====

- Assay Overview: Plasma pharmacokinetics of rucaparib (LC-MS/MS, noncompartmental)
- Settings: human, plasma, po, 80 mg, tmax, single oral dose 80 mg, day –5; median (minimum, maximum)
Measured Attribute: Tmax

[[record]]
structure_smiles_string = "CNCc1ccc(-c2[nH]c3cc(F)cc4c3c2CCNC4=O)cc1"
result = "2.5 h"


====

- Assay Overview: Plasma pharmacokinetics of rucaparib (LC-MS/MS, noncompartmental)
- Settings: human, plasma, po, 240 mg, AUC0-24, single oral dose 240 mg, day –5; geometric mean (CV%)
Measured Attribute: AUC(0-t) (ng·h/mL)

[[record]]
compound = "CNCc1ccc(-c2[nH]c3cc(F)cc4c3c2CCNC4=O)cc1 [rucaparib]"
readout_number = 5030


====

- Assay Overview: clinical
- Settings: human, in vivo, po, 360 mg, t1/2
Measured Attribute: half-life (h)

[[record]]
structure_smiles_string = "CNCc1ccc(-c2[nH]c3cc(F)cc4c3c2CCNC4=O)cc1"
unit_of_measurement = "h"
readout_number = 18.2


====

- Assay Overview: Plasma pharmacokinetics of rucaparib (LC-MS/MS, noncompartmental)
- Settings: human, plasma, iv, 40 mg
Measured Attribute: Vd (L)

[[record]]
compound = "CNCc1ccc(-c2[nH]c3cc(F)cc4c3c2CCNC4=O)cc1 [rucaparib]"
unit_of_measurement = "L"
readout_number = 113


====

- Assay Overview: Plasma pharmacokinetics of rucaparib (LC-MS/MS, noncompartmental)
- Settings: human, plasma, po, 180 mg, tmax, oral 180 mg q.d. for 14 days; median (minimum, maximum)
Measured Attribute: Tmax at 14 days (h)

[[record]]
structure_smiles_string = "CNCc1ccc(-c2[nH]c3cc(F)cc4c3c2CCNC4=O)cc1"
readout_number = 4


====

- Assay Overview: Plasma pharmacokinetics of rucaparib (LC-MS/MS, noncompartmental)
- Settings: human, plasma, po, 72 mg, tmax, single oral dose 72 mg, day –5; median (minimum, maximum)
Measured Attribute: Tmax

[[record]]
compound = "CNCc1ccc(-c2[nH]c3cc(F)cc4c3c2CCNC4=O)cc1 [rucaparib]"
measured_attribute = "Tmax"
result = "2 h"


====

- Assay Overview: Plasma pharmacokinetics of rucaparib (LC-MS/MS, noncompartmental)
- Settings: human, plasma, po, 48 mg, tmax, single oral dose 48 mg, day –5; median (minimum, maximum)
Measured Attribute: Tmax (h)

[[record]]
molecule = "CNCc1ccc(-c2[nH]c3cc(F)cc4c3c2CCNC4=O)cc1 [rucaparib]"
measured_attribute = "Tmax"
readout_number = 1.25


====

- Assay Overview: Plasma pharmacokinetics of rucaparib (LC-MS/MS, noncompartmental)
- Settings: human, plasma, po, 120 mg, AUC0-24, single oral dose 120 mg, day 1; geometric mean (CV%)
Measured Attribute: AUC(0-t) (ng·h/mL)

[[record]]
molecule = "CNCc1ccc(-c2[nH]c3cc(F)cc4c3c2CCNC4=O)cc1 [rucaparib]"
readout_number = 3260


====

- Assay Overview: Plasma pharmacokinetics of rucaparib (LC-MS/MS, noncompartmental)
- Settings: human, plasma, po, 180 mg, Cmax, oral 180 mg q.d. for 14 days; geometric mean (CV%)
Measured Attribute: Cmax (ng/mL)

[[record]]
structure_smiles_string = "CNCc1ccc(-c2[nH]c3cc(F)cc4c3c2CCNC4=O)cc1"
unit_of_measurement = "ng/mL"
readout_number = 454


====

- Assay Overview: Plasma pharmacokinetics of rucaparib (LC-MS/MS, noncompartmental)
- Settings: human, plasma, po, 36 mg, AUC0-24, single oral dose 36 mg, day –5; geometric mean (CV%)
Measured Attribute: AUC(0-t) (ng·h/mL)

[[record]]
structure_smiles_string = "CNCc1ccc(-c2[nH]c3cc(F)cc4c3c2CCNC4=O)cc1"
unit_of_measurement = "ng·h/mL"
readout_number = 696


====

- Assay Overview: Plasma pharmacokinetics of rucaparib (LC-MS/MS, noncompartmental)
- Settings: human, plasma, po, 120 mg, Cmax, oral 120 mg q.d. for 14 days; geometric mean (CV%)
Measured Attribute: Cmax (ng/mL)

[[record]]
structure_smiles_string = "CNCc1ccc(-c2[nH]c3cc(F)cc4c3c2CCNC4=O)cc1"
readout_number = 375


====

- Assay Overview: Plasma pharmacokinetics of rucaparib (LC-MS/MS, noncompartmental)
- Settings: human, plasma, po, 80 mg, Cmax, single oral dose 80 mg, day 1; geometric mean (CV%)
Measured Attribute: Cmax (ng/mL)

[[record]]
structure_smiles_string = "CNCc1ccc(-c2[nH]c3cc(F)cc4c3c2CCNC4=O)cc1"
unit_of_measurement = "ng/mL"
readout_number = 99


====

- Assay Overview: Plasma pharmacokinetics of rucaparib (LC-MS/MS, noncompartmental)
- Settings: human, plasma, po, 120 mg, AUCinf, single oral dose 120 mg, day 1; geometric mean (CV%)
Measured Attribute: AUC(0-inf)

[[record]]
molecule = "CNCc1ccc(-c2[nH]c3cc(F)cc4c3c2CCNC4=O)cc1 [rucaparib]"
measured_attribute = "AUC(0-inf)"
result = "3770 ng·h/mL"


====

- Assay Overview: Plasma pharmacokinetics of rucaparib (LC-MS/MS, noncompartmental)
- Settings: human, plasma, iv, 24 mg, AUCinf, single i.v. dose 24 mg, day –10; geometric mean (CV%)
Measured Attribute: AUC(0-inf)

[[record]]
structure_smiles_string = "CNCc1ccc(-c2[nH]c3cc(F)cc4c3c2CCNC4=O)cc1"
measured_attribute = "AUC(0-inf)"
result = "1710 ng·h/mL"


====

- Assay Overview: Plasma pharmacokinetics of rucaparib (LC-MS/MS, noncompartmental)
- Settings: human, plasma, iv, 24 mg, AUC0-24, single i.v. dose 24 mg, day –10; geometric mean (CV%)
Measured Attribute: AUC(0-t) (ng·h/mL)

[[record]]
structure_smiles_string = "CNCc1ccc(-c2[nH]c3cc(F)cc4c3c2CCNC4=O)cc1"
readout_number = 1220


====

- Assay Overview: Plasma pharmacokinetics of rucaparib (LC-MS/MS, noncompartmental)
- Settings: human, plasma, po, 360 mg, AUC0-24, single oral dose 360 mg, day –5; geometric mean (CV%)
Measured Attribute: AUC(0-t) (ng·h/mL)

[[record]]
structure_smiles_string = "CNCc1ccc(-c2[nH]c3cc(F)cc4c3c2CCNC4=O)cc1"
readout_number = 9170


====

- Assay Overview: clinical
- Settings: human, in vivo, po, 12 mg, t1/2
Measured Attribute: half-life (h)

[[record]]
structure_smiles_string = "CNCc1ccc(-c2[nH]c3cc(F)cc4c3c2CCNC4=O)cc1"
readout_number = 18.6


====

- Assay Overview: clinical
- Settings: human, in vivo, po, 180 mg, t1/2
Measured Attribute: half-life

[[record]]
structure_smiles_string = "CNCc1ccc(-c2[nH]c3cc(F)cc4c3c2CCNC4=O)cc1"
result = "19.2 h"


====

- Assay Overview: Plasma pharmacokinetics of rucaparib (LC-MS/MS, noncompartmental)
- Settings: human, plasma, po, 180 mg, Cmax, single oral dose 180 mg, day 1; geometric mean (CV%)
Measured Attribute: Cmax

[[record]]
compound = "CNCc1ccc(-c2[nH]c3cc(F)cc4c3c2CCNC4=O)cc1 [rucaparib]"
measured_attribute = "Cmax"
result = "527 ng/mL"


====

- Assay Overview: Plasma pharmacokinetics of rucaparib (LC-MS/MS, noncompartmental)
- Settings: human, plasma, po, 360 mg, AUCinf, single oral dose 360 mg, day 1; geometric mean (CV%)
Measured Attribute: AUC(0-inf)

[[record]]
compound = "CNCc1ccc(-c2[nH]c3cc(F)cc4c3c2CCNC4=O)cc1 [rucaparib]"
measured_attribute = "AUC(0-inf)"
result = "9980 ng·h/mL"


====

- Assay Overview: Plasma pharmacokinetics of rucaparib (LC-MS/MS, noncompartmental)
- Settings: human, plasma, po, 80 mg, Cmax, oral 80 mg q.d. for 14 days; n = 1
Measured Attribute: Cmax

[[record]]
structure_smiles_string = "CNCc1ccc(-c2[nH]c3cc(F)cc4c3c2CCNC4=O)cc1"
result = "190 ng/mL"

